B1: MMP1 (parent)
chain: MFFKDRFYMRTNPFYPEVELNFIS

Variants of: B1
ASSAY COMMENT: protein stability index of a GFP-peptide fusion (GPS, HEK-293T) (PSI 1-6); higher = more stable;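 further: lentivirally expressed fusions sorted by FACS into six bins by GFP to DsRed ratio, PSI derived from sequencing read proportions per bin multiplied by bin number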
SETTINGS: c terminus: a fixed tail appended
Measured protein stability index, listed per entry for reference.

[
  {
    "MUTATION SPEC": "V18P",
    "protein stability index": 3.06
  },
  {
    "MUTATION SPEC": "Y15T",
    "protein stability index": 2.43
  },
  {
    "MUTATION SPEC": "M1F",
    "protein stability index": 3.03
  },
  {
    "MUTATION SPEC": "F2R",
    "protein stability index": 4.3
  },
  {
    "MUTATION SPEC": "S24T",
    "protein stability index": 3.07
  },
  {
    "MUTATION SPEC": "T11E",
    "protein stability index": 3.11
  },
  {
    "MUTATION SPEC": "E19W",
    "protein stability index": 1.3
  },
  {
    "MUTATION SPEC": "F7Q",
    "protein stability index": 2.06
  },
  {
    "MUTATION SPEC": "F22D",
    "protein stability index": 1.31
  },
  {
    "MUTATION SPEC": "F14Q",
    "protein stability index": 2.58
  },
  {
    "MUTATION SPEC": "F22S",
    "protein stability index": 1.67
  },
  {
    "MUTATION SPEC": "Y15E",
    "protein stability index": 2.15
  },
  {
    "MUTATION SPEC": "P13C",
    "protein stability index": 2.68
  },
  {
    "MUTATION SPEC": "R10Q",
    "protein stability index": 2.17
  },
  {
    "MUTATION SPEC": "N12M",
    "protein stability index": 2.94
  },
  {
    "MUTATION SPEC": "T11G",
    "protein stability index": 2.64
  },
  {
    "MUTATION SPEC": "F14L",
    "protein stability index": 2.62
  },
  {
    "MUTATION SPEC": "F3P",
    "protein stability index": 1.48
  },
  {
    "MUTATION SPEC": "S24P",
    "protein stability index": 3.07
  },
  {
    "MUTATION SPEC": "Y8S",
    "protein stability index": 3.33
  },
  {
    "MUTATION SPEC": "E17K",
    "protein stability index": 2.21
  },
  {
    "MUTATION SPEC": "F7L",
    "protein stability index": 3.36
  },
  {
    "MUTATION SPEC": "R6T",
    "protein stability index": 3.77
  },
  {
    "MUTATION SPEC": "Y15K",
    "protein stability index": 2.72
  },
  {
    "MUTATION SPEC": "E19I",
    "protein stability index": 3.25
  },
  {
    "MUTATION SPEC": "I23N",
    "protein stability index": 1.53
  },
  {
    "MUTATION SPEC": "Y8T",
    "protein stability index": 2.23
  },
  {
    "MUTATION SPEC": "Y8W",
    "protein stability index": 2.96
  },
  {
    "MUTATION SPEC": "E19P",
    "protein stability index": 3.53
  },
  {
    "MUTATION SPEC": "R10A",
    "protein stability index": 1.52
  },
  {
    "MUTATION SPEC": "Y15Q",
    "protein stability index": 1.34
  },
  {
    "MUTATION SPEC": "E17P",
    "protein stability index": 1.8
  },
  {
    "MUTATION SPEC": "Y8N",
    "protein stability index": 2.17
  },
  {
    "MUTATION SPEC": "P16Q",
    "protein stability index": 3.75
  },
  {
    "MUTATION SPEC": "M9E",
    "protein stability index": 1.93
  },
  {
    "MUTATION SPEC": "P13L",
    "protein stability index": 2.37
  },
  {
    "MUTATION SPEC": "Y15A",
    "protein stability index": 1.72
  },
  {
    "MUTATION SPEC": "E17S",
    "protein stability index": 2.15
  },
  {
    "MUTATION SPEC": "N21W",
    "protein stability index": 2.85
  },
  {
    "MUTATION SPEC": "S24R",
    "protein stability index": 2.05
  },
  {
    "MUTATION SPEC": "F3G",
    "protein stability index": 4.14
  },
  {
    "MUTATION SPEC": "N21T",
    "protein stability index": 3.97
  },
  {
    "MUTATION SPEC": "F2L",
    "protein stability index": 2.36
  },
  {
    "MUTATION SPEC": "Y8M",
    "protein stability index": 2.89
  },
  {
    "MUTATION SPEC": "F7P",
    "protein stability index": 3.98
  },
  {
    "MUTATION SPEC": "Y8V",
    "protein stability index": 3.2
  }
]

Values from the supplement of paper PMC10567573
